- Tested on: SF-268
- protocol_notes: NCI tumour cell line growth inhibition, 48 h
Calls of active or inactive are those of the source. Rule as the data show it: active = GI50 up to about 1.1 µM and inactive = higher.
readout_kind: GI50

compound | readout_kind | result
COC(=O)c1ccc(NCC2=C(Br)C(=O)C=CC2=O)cc1Cl | GI50 | 16.8 µM (inactive)
Cc1ccccc1NC(=O)O/N=C(\Cl)C(C)C | GI50 | 19.3 µM (inactive)
CCOC(=O)N/N=C(\Cc1ccc([N+](=O)[O-])cc1)OCC | GI50 | > 100 µM (inactive)
O=c1[nH]c(=O)n([C@H]2C[C@H](O)[C@@H](CO)O2)cc1Br | GI50 | > 100 µM (inactive)

# map each compound to its GI50
1. C=C(C)C1CCC2(C)CC1c1c(c(C)cc3c1[nH]c1ccccc13)O2 (stereo unspecified)
2. CC1=NN=C(C)C1/N=N/c1ccc2[nH]c(C)nc2c1
3. COc1ccc(/C=N/Nc2nc(-c3cc4oc(=O)n(C)c4cc3Cl)cs2)cc1OC
4. CSc1nc(-c2cc3c(c(SC)n2)CCC3)cc2c1CCC2
5. CCCCOP1(=O)C=CC(Cl)=C(C)C1 (stereo unspecified)
6. O=C1C(c2cnc3ccccc3n2)=C(O)c2ccccc21

["> 25 µM (inactive)", "10.9 µM (inactive)", "35.3 µM (inactive)", "> 100 µM (inactive)", "28.1 µM (inactive)", "> 93.8 µM (inactive)"]

Requested read-out: GI50. Entry: CC1(Sc2ccccc2)CN(Cc2ccccc2)C1=O (stereo unspecified)
> 100 µM (inactive)
